test-method-notes: terephthalic acid (TPA) released, HPLC; higher = more TPA released; extreme values may be limits of the assay
cond: PET substrate: aFilm; 60 °C; pH 6.5; 24 h
property-label: terephthalic acid (mM)
A number alone suffices; assume mM.

Need terephthalic acid, item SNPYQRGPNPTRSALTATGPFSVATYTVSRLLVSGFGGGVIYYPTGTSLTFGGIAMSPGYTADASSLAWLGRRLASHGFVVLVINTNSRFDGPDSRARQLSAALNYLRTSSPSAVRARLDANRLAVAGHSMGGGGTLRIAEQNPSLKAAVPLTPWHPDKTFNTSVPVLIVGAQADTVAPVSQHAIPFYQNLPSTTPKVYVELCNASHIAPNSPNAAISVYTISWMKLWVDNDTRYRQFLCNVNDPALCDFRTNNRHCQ [LCC-ICCG I6M]
0.499

Which terephthalic acid is reported for this sequence? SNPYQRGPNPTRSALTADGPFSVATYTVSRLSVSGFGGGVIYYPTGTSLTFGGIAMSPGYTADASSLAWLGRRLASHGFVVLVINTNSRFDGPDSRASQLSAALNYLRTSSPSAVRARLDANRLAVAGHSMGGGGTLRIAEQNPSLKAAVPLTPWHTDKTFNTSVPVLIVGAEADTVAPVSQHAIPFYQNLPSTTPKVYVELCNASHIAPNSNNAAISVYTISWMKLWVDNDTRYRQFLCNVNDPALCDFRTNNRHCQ [LCC-ICCG]
0.78

---

Kindly supply the reported MHET released values for the records listed here.
test-method-notes: MHET released, HPLC; higher = more MHET released; extreme values may be limits of the assay
cond: PET substrate: cryPow; 60 °C; pH 5.5; 24 h
Lab note: write values as number then unit, every time.

Sample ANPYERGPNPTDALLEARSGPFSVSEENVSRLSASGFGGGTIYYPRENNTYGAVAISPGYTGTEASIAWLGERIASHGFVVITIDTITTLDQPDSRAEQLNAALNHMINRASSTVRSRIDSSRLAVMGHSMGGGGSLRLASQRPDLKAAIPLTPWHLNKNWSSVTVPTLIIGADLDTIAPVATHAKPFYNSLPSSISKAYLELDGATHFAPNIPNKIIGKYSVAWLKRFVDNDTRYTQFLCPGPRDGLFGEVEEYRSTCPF [TfCut2] — what was its MHET released?
0.0126 mM

What value of measured MHET released is listed for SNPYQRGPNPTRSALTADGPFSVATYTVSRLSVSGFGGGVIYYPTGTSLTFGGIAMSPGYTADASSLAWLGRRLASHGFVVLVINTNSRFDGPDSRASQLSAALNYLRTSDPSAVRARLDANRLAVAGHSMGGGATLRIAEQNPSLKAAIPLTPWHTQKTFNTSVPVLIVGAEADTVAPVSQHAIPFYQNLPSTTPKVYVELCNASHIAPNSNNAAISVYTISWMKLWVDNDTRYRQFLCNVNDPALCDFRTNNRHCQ [LCC-ICCG DAQI] ?
0.189 mM

---

Would you mind telling me the reported PET hydrolysis product formed of each entry?
test-method-notes: PET hydrolysis product formed (TPA+MHET+BHET, UV-Vis) per mg enzyme (mmol/mg enzyme); higher = more PET depolymerisation activity; extreme values may be limits of the assay
cond: PET substrate: aFilm; 60 °C; pH 9.5; 2 h
API note: the answer field is a bare number with no unit suffix.

State the recorded PET hydrolysis product formed for this entry: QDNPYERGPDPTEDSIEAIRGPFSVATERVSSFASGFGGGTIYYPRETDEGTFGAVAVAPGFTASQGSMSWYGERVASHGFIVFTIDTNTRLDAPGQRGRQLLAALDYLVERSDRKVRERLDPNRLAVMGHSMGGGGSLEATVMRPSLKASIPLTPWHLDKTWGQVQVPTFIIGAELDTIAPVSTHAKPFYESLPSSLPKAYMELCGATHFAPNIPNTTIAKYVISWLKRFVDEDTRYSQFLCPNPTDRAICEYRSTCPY [Cut190*SS]
0.0106

For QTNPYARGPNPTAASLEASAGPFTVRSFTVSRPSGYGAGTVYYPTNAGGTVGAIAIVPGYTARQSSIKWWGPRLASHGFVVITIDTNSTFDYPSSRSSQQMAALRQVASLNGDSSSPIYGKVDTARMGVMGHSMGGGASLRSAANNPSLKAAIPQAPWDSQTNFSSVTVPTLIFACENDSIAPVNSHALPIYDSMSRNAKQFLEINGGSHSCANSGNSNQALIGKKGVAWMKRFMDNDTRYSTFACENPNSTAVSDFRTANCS [DuraPETase] , what is its reported PET hydrolysis product formed?
0.0223

Given the sequence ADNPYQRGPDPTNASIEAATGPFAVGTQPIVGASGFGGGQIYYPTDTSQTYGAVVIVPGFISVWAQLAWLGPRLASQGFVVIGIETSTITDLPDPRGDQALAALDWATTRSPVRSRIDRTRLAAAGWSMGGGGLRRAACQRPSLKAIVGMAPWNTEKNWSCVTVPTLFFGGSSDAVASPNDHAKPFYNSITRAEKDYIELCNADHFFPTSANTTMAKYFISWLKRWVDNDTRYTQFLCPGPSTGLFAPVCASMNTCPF [CaPETaseM9] , what is its reported PET hydrolysis product formed?
0

Provenance of the data: the supplement of paper PMC11196671
